B1: scFv; the commonest letter at each place (parent)
chain 1: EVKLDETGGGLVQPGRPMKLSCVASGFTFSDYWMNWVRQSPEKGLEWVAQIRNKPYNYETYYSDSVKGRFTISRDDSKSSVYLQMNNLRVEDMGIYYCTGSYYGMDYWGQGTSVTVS
chain 2: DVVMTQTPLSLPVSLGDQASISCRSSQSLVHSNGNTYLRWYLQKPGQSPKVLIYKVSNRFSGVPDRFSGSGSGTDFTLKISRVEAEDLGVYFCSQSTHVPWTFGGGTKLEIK

Variants of: B1
PROCEDURE_DETAILS: yeast surface expression (ratio to wild type); higher = more expressed
ASSAY_CONDITIONS: format: scFv 4-4-20, heavy + light
EXPERIMENTAL_READOUT: yeast surface expression
# print the numeric value only

Here's what some known entries look like.
chain 1 S30T N35Q	0.831
chain 1 S30Y W33G	0.602
chain 1 Y103S G104N	1.04
chain 1 D106Y G109Q	0.171
chain 1 G100A D106W	0.393
chain 1 Y103L G109M	0.208
chain 1 M34I W36K	0.24
chain 1 G109N	0.622

Data request: Could you please provide reported yeast surface expression for chain 1 S101E M105V D106P ? Thanks!
Data returned: 0.387

Data request: Could you please provide reported yeast surface expression for chain 1 Y103Q G104N ? Thanks!
Data returned: 0.905

Values compiled from the FLAb antibody collection (doi:10.7554/elife.23156).
